- measuredTarget: T1, recombinant human TIMP-3 (human, UniProt P35625 24-211)
- T1 sequence (looked up): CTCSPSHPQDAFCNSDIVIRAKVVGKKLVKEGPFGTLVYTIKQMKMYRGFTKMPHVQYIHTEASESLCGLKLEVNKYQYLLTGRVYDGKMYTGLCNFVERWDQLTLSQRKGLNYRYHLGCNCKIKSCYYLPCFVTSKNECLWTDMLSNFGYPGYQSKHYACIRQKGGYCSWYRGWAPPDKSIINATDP
- method: cell-based or functional assay
observationType: % of the inhibitory activity of TIMP-3 + peptide compared to TIMP-3 alone, 80 nM (%)

binder="CGPSSFSCPGTHVCVPERWLCDGDKDCADGADESIAAGCLYNST (Tags implied (Ni-NTA, anti-HA detection), not described) [LRP-1 peptide LA17]" reading=93
binder="LRP-1 peptide LA15-17 (The end 2817 is inferred from the end of LA17) CPLNYFACPSGRCIPMSWTCDKEDDCEHGEDETHCNKFCSEAQFECQNHRCISKQWLCDGSDDCGDGSDEAAHCEGKTCGPSSFSCPGTHVCVPERWLCDGDKDCADGADESIAAGCLYNST" reading=82
binder="CLPSQFKCTNTNRCIPGIFRCNGQDNCGDGEDERDCPEVT [LRP-1 peptide LA23]" reading=107
binder="LRP-1 peptide LA26-28 (peptide) CEPYQFRCKNNRCVPGRWQCDYDNDCGDNSDEESCTPRPCSESEFSCANGRCIAGRWKCDGDHDCADGSDEKDCTPRCDMDQFQCKSGHCIPLRWRCDADADCMDGSDEEACGTGVRT" reading=100
binder="LRP-1 peptide LA4-5 (peptide) CPSDRFKCENNRCIPNRWLCDGDNDCGNSEDESNATCSARTCPPNQFSCASGRCIPISWTCDLDDDCGDRSDESASCAYPT" reading=101
